- assay.explanation: in vivo
- run.conditions: dog, po, 200 mg/kg
measured.endpoint: concentration at 4 h (ng/mL)
All answers are understood in ng/mL, so give the number only.

Exam item: Requested field: concentration at 4 h. Item: O=C(O)[C@H](O)[C@@H](O)CO [calcium L-threonate]
Marked response: 17200

The measured values listed here are drawn from patent US6077872A.
